Listed here are molecules together with their documented pIC50.
Target: SCD5 (Homo sapiens, UniProt Q86SK9)
Construct: host or cells: Saccharomyces cerevisiae ole1Δ strain (W303 pdr1Δ pdr3Δ background), plasmid pRS316, TDH3 promoter
Sequence (Q86SK9 1-330): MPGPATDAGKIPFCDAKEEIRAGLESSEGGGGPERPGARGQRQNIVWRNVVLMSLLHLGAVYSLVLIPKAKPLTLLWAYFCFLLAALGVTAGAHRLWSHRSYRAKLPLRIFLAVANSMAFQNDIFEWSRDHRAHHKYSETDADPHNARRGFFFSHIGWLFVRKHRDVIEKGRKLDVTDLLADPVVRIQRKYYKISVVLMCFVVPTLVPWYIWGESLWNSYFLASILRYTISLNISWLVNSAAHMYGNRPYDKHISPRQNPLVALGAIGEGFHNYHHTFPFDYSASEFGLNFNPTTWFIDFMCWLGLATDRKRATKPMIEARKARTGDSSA
Assay: Growth inhibition of yeast (ole1Δ) expressing human SCD5 as the sole desaturase
Assay type: cell-based
Settings: yeast strain with SCD5 plasmid, OD600 growth read at 40 h; read-out: SCD5 IC50
Remember the convention: pIC50 equals -log10 of concentration in molar.

INSERT INTO results (substance_smiles, assayed_target, readout, recorded_value) VALUES
  ('Cn1cc(-c2nc(N3CCC(Cc4cc(F)cc(F)c4)CC3)no2)ccc1=O', 'SCD5 (Homo sapiens, UniProt Q86SK9)', 'pIC50', 8.00),
  ('Cn1nc(NC(=O)N2CCC(Oc3cccc(C(F)(F)F)c3)CC2)ccc1=O', 'SCD5 (Homo sapiens, UniProt Q86SK9)', 'pIC50', 7.40),
  ('Cn1nc(-c2nc(N3CCC(Cc4cc(Cl)cc(C#N)c4)CC3)no2)ccc1=O', 'SCD5 (Homo sapiens, UniProt Q86SK9)', 'pIC50', 7.52);

Continue with the next molecule.
Ask: Please give the measured pIC50 for this molecule: O=C(Cc1ccc(=O)[nH]n1)N1CCC(Cc2cc(F)cc(F)c2)CC1
Reply: 4.69

====

molecular target: SCD5 (Homo sapiens, UniProt Q86SK9); construct: host or cells: Saccharomyces cerevisiae ole1Δ strain (W303 pdr1Δ pdr3Δ background), plasmid pRS316, TDH3 promoter; assay: Growth inhibition of yeast (ole1Δ) expressing human SCD5 as the sole desaturase; assay type: cell-based; conditions: yeast strain with SCD5 plasmid, OD600 growth read at 40 h; read-out: SCD5 IC50
// IC50 lookup, one value per entry
The figure you give is taken to be in nM; do not add the unit.

Please review the following examples before continuing.
INSERT INTO measurements (compound, assayed_target, readout, recorded_value) VALUES
  ('O=c1ccc(-c2noc(N3CCC(Cc4ccc(F)c(F)c4)CC3)n2)c[nH]1 [Compound 1]', 'SCD5 (Homo sapiens, UniProt Q86SK9)', 'IC50', 3800),
  ('Cn1cc(-c2nnc(N3CCC(Cc4cccc(F)c4)CC3)o2)ccc1=O [Compound 18]', 'SCD5 (Homo sapiens, UniProt Q86SK9)', 'IC50', 1930),
  ('Cn1nc(NC(=O)N2CCC(Cc3cc(F)cc(F)c3)C2)ccc1=O (centres unmarked) [Compound 26]', 'SCD5 (Homo sapiens, UniProt Q86SK9)', 'IC50', 5680),
  ('Cn1nc(NC(=O)N2CCC(Cc3cc(F)ccc3F)CC2)ccc1=O [Compound 53]', 'SCD5 (Homo sapiens, UniProt Q86SK9)', 'IC50', 130);

Switching to the query record.
Ask: # input compound: Cn1nc(NC(=O)N2CCC(Cc3cc(F)c(F)c(Cl)c3)CC2)ccc1=O [Compound 63] ; wanted: its IC50
Reply: 10

====

biological target: SCD5 (Homo sapiens, UniProt Q86SK9); construct: host or cells: Saccharomyces cerevisiae ole1Δ strain (W303 pdr1Δ pdr3Δ background), plasmid pRS316, TDH3 promoter; assay: Growth inhibition of yeast (ole1Δ) expressing human SCD5 as the sole desaturase; format: cell-based; conditions: yeast strain with SCD5 plasmid, OD600 growth read at 40 h; read-out: SCD5 IC50
pIC50: −log10 of the molar value.
Label not satisfied if pIC50 falls below 5; label satisfied in every other case.

Worked set:
INSERT INTO results (compound, assayed_target, class_label) VALUES
  ('Cn1cc(-c2nc(N3CCC(Oc4cccc(F)c4Cl)CC3)no2)ccc1=O', 'SCD5 (Homo sapiens, UniProt Q86SK9)', 'satisfied'),
  ('Cn1nc(NC(=O)N2CCC(COc3ccccc3F)CC2)ccc1=O', 'SCD5 (Homo sapiens, UniProt Q86SK9)', 'satisfied');

Ask: State whether the measured pIC50 reaches 5, counting equality as reaching it, for Cn1nc(NC(=O)N2CC[C@@H](Oc3ccc(F)c(F)c3)C2)ccc1=O
Reply: not satisfied

Ask: Hi, just wondering whether Cn1nc(NC(=O)N2CCC(Cc3cc(F)cc(C#N)c3)CC2)ccc1=O shows pIC50 of 5 or higher.
Reply: satisfied

Ask: Could you verify whether the entry Cn1cc(NC(=O)N2CCC(Cc3cc(F)cc(F)c3)C2)ccc1=O (stereo not drawn) shows pIC50 of no less than 5?
Reply: not satisfied

Ask: Does pIC50 meet or surpass 5 for O=c1ccc(-c2noc(N3CCC(Cc4cc(F)cc(F)c4)CC3)n2)c[nH]1 ?
Reply: not satisfied

Ask: I'd appreciate it if you could say whether Cn1nc(NC(=O)N2CCC(Nc3ccccc3C(F)(F)F)CC2)ccc1=O has pIC50 at least equal to 5.
Reply: satisfied

Ask: Exam item: decide whether the reported pIC50 for Cn1cc(CC(=O)N2CCC(Cc3cccc(Cl)c3)CC2)ccc1=O is at least 5.
Reply: not satisfied

Ask: pIC50 >= 5 for Cn1cc(NC(=O)N2CCC(Cc3ccc(F)c(F)c3)CC2)ccc1=O ?
Reply: satisfied

====

molecular target: SCD1 (Homo sapiens); construct: host or cells: Saccharomyces cerevisiae ole1Δ strain (W303 pdr1Δ pdr3Δ background), plasmid pRS316, TDH3 promoter; assay: Growth inhibition of yeast (ole1Δ) expressing human SCD1 as the sole desaturase; format: cell-based; details: yeast strain with SCD1 plasmid, OD600 growth read at 40 h; read-out: SCD1 IC50
readout: IC50 (µM)
# unit: µM | format: bare number

// below: answered compounds
INSERT INTO results (compound, recorded_value) VALUES
  ('Cn1nc(NC(=O)N2CCC(Oc3cccc(Cl)c3Cl)CC2)ccc1=O [Compound 81]', 0.06),
  ('Cn1nc(-c2noc(N3CCC(Cc4cc(F)cc(F)c4)CC3)n2)ccc1=O [Compound 122]', 13.6),
  ('Cn1nc(-c2nnc(N3CCC(Cc4cc(F)cc(F)c4)CC3)o2)ccc1=O [Compound 118]', 26.3);

Ask: Consider the compound shown here: Cn1nc(NC(=O)N2CCC(Oc3ccccc3)CC2)ccc1=O [Compound 67] What is its recorded IC50?
Reply: 3.98

Ask: GET /values?readout=IC50&item= Cn1nc(NC(=O)N2CCC(Oc3cccc(F)c3C(F)(F)F)CC2)ccc1=O [Compound 84]
Reply: 0.43

Ask: Name the reported IC50 value associated with the compound Cc1cc(NC(=O)N2CCC(Oc3cc(F)cc(F)c3)CC2)nn(C)c1=O [Compound 126]
Reply: 0.04

Ask: Return reported IC50; argument: Cn1nc(NC(=O)N2CCC(Cc3cc(F)cc(F)c3Cl)CC2)ccc1=O [Compound 64]
Reply: 0.05

====

biological target: SCD1 (Homo sapiens); construct: host or cells: Saccharomyces cerevisiae ole1Δ strain (W303 pdr1Δ pdr3Δ background), plasmid pRS316, TDH3 promoter; test: Growth inhibition of yeast (ole1Δ) expressing human SCD1 as the sole desaturase; type: cell-based
Measured IC50, listed per entry.

INSERT INTO measurements (substance_smiles, readout, recorded_value) VALUES
  ('Cn1nc(NC(=O)N2CCC(Nc3cc(F)cc(F)c3)CC2)ccc1=O', 'IC50', '> 45 µM');

Ask: Could you share what IC50 was measured for Cn1nc(NC(=O)N2CCC(Nc3cc(F)cc(Cl)c3)CC2)ccc1=O , tested on SCD1 (Homo sapiens)?
Reply: > 45 µM

Ask: Hello, I am looking for reported IC50 with SCD1 (Homo sapiens) for Cn1cc(NC(=O)N2CCC(Nc3cc(F)cc(F)c3)CC2)ccc1=O . Could you help?
Reply: > 45 µM

====

molecular target: SCD1 (Homo sapiens, UniProt O00767); construct: host or cells: Saccharomyces cerevisiae ole1Δ strain (W303 pdr1Δ pdr3Δ background), plasmid pRS316, TDH3 promoter; experiment: Growth inhibition of yeast (ole1Δ) expressing human SCD1 as the sole desaturase; format: cell-based; conditions: read-out: SCD1 IC50
Sequence (O00767 whole entry): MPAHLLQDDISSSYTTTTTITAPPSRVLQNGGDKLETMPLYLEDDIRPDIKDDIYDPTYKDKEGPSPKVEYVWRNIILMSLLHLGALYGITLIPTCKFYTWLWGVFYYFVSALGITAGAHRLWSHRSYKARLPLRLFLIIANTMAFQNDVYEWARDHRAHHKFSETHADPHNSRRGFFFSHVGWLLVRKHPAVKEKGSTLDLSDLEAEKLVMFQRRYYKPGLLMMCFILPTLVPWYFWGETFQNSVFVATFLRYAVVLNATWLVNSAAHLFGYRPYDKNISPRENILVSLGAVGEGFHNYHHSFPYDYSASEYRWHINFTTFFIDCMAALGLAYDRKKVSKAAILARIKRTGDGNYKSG
readout: pIC50
// pIC50 here means minus log10 of the molar concentration (mol/L)

Ask: Find pIC50 (SCD1 (Homo sapiens, UniProt O00767)) for the entry Cn1nc(NC(=O)N2CCC(Cc3ccc(F)cc3)CC2)ccc1=O
Reply: 5.66
